molecular target: Protease (Human T-cell leukemia virus type I, UniProt Q82134, L40I); assay: Inhibition of HTLV1 protease L40I mutant
Sequence (Q82134 entry or part of it L40I): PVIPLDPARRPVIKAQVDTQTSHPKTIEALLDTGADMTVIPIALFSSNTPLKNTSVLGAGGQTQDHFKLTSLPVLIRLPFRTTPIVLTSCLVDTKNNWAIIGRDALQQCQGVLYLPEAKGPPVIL
PROPERTY_NAME: IC50 (nM)
Could you give me the number in nM? Just the number is fine.

COMPOUND: CC(C)CC(=O)N[C@H](C(=O)N[C@H](C(=O)N[C@@H](Cc1ccccc1)[C@H](O)C(=O)N1CSC(C)(C)[C@H]1C(=O)NCC(C)(C)C)C(C)(C)C)c1ccccc1
ENDPOINT_RESULT: 82
//
COMPOUND: CCC(=O)N[C@H](C(=O)N[C@H](C(=O)N[C@@H](Cc1ccccc1)[C@H](O)C(=O)N1CSC(C)(C)[C@H]1C(=O)NCC(C)(C)C)C(C)(C)C)c1ccccc1
ENDPOINT_RESULT: 98
//
COMPOUND: CC(C)CC(=O)N[C@H](C(=O)N[C@H](C(=O)N[C@@H](Cc1ccccc1)[C@H](O)C(=O)N1CSC(C)(C)[C@H]1C(=O)NC(C)C(C)C)C(C)(C)C)c1ccccc1 (stereo partly specified)
ENDPOINT_RESULT: 107
//
COMPOUND: CC(NC(=O)[C@H]1N(C(=O)[C@@H](O)[C@H](Cc2ccccc2)NC(=O)[C@@H](NC(=O)[C@@H](N)c2ccccc2)C(C)(C)C)CSC1(C)C)C(C)(C)C (stereo partly specified)
ENDPOINT_RESULT: 156
//
COMPOUND: CCCC(=O)N[C@H](C(=O)N[C@H](C(=O)N[C@@H](Cc1ccccc1)[C@H](O)C(=O)N1CSC(C)(C)[C@H]1C(=O)NC(C)C(C)(C)C)C(C)(C)C)c1ccccc1 (stereo partly specified)
ENDPOINT_RESULT: 94

Would you kindly look at the next entry?
Endpoint output: IC50 of `CC(C)(C)CNC(=O)[C@H]1N(C(=O)[C@@H](O)[C@H](Cc2ccccc2)NC(=O)[C@@H](NC(=O)[C@@H](NC(=O)C(C)(C)C)c2ccccc2)C(C)(C)C)CSC1(C)C` . Value?
97

---

Below, each of the compounds is paired with its reported IC50 value.
target: Protease (Human T-cell leukemia virus type I, UniProt Q82134, L40I); experiment: Inhibition of HTLV1 protease L40I mutant
Please state the figure in nM; there is no need to write the unit.

The examples below pair each entry with its known result.
COMPOUND: CCC(=O)N[C@H](C(=O)N[C@H](C(=O)N[C@@H](Cc1ccccc1)[C@H](O)C(=O)N1CSC(C)(C)[C@H]1C(=O)NCC(C)C)C(C)(C)C)c1ccccc1
UNIT_ABBREVIATION: nM
ENDPOINT_RESULT: 105
--
COMPOUND: CC(=O)N[C@H](C(=O)N[C@H](C(=O)N[C@@H](Cc1ccccc1)[C@H](O)C(=O)N1CSC(C)(C)[C@H]1C(=O)NC(C)C(C)C)C(C)(C)C)c1ccccc1 (stereo partly specified)
UNIT_ABBREVIATION: nM
ENDPOINT_RESULT: 136
--
COMPOUND: C=CCCC(=O)N[C@H](C(=O)N[C@H](C(=O)N[C@@H](Cc1ccccc1)[C@H](O)C(=O)N1CSC(C)(C)[C@H]1C(=O)NC(C)C(C)C)C(C)(C)C)c1ccccc1 (stereo partly specified)
UNIT_ABBREVIATION: nM
ENDPOINT_RESULT: 87
--
COMPOUND: CC(C)CCNC(=O)[C@H]1N(C(=O)[C@@H](O)[C@H](Cc2ccccc2)NC(=O)[C@@H](NC(=O)[C@@H](NC(=O)CC(C)C)c2ccccc2)C(C)(C)C)CSC1(C)C
UNIT_ABBREVIATION: nM
ENDPOINT_RESULT: 107
--
COMPOUND: CC(C)CNC(=O)[C@H]1N(C(=O)[C@@H](O)[C@H](Cc2ccccc2)NC(=O)[C@@H](NC(=O)[C@@H](N)c2ccccc2)C(C)(C)C)CSC1(C)C
UNIT_ABBREVIATION: nM
ENDPOINT_RESULT: 332

IC50 for CC(C)C(C)NC(=O)[C@H]1N(C(=O)[C@@H](O)[C@H](Cc2ccccc2)NC(=O)[C@@H](NC(=O)[C@@H](NC(=O)C2CC2)c2ccccc2)C(C)(C)C)CSC1(C)C (stereo partly specified) ?
90

---

IC50 by entry:
biological target: Protease (Human T-cell leukemia virus type I, UniProt Q82134, L40I); assay: Inhibition of HTLV1 protease L40I mutant
Enter your answer as a number in nM; do not include the unit.

Previously resolved entries follow.
COMPOUND: CC(C)(C)[C@H](NC(=O)[C@@H](N)c1ccccc1)C(=O)N[C@@H](Cc1ccccc1)[C@H](O)C(=O)N1CSC(C)(C)[C@H]1C(=O)NCC1CC1
IC50 [nM]: 928

COMPOUND: CC(=O)N[C@H](C(=O)N[C@H](C(=O)N[C@@H](Cc1ccccc1)[C@H](O)C(=O)N1CSC(C)(C)[C@H]1C(=O)NCC1CC1)C(C)(C)C)c1ccccc1
IC50 [nM]: 146

COMPOUND: CC(C)C(C)NC(=O)[C@H]1N(C(=O)[C@@H](O)[C@H](Cc2ccccc2)NC(=O)[C@@H](NC(=O)[C@@H](N)c2ccccc2)C(C)(C)C)CSC1(C)C (stereo partly specified)
IC50 [nM]: 354

COMPOUND: CCC(=O)N[C@H](C(=O)N[C@H](C(=O)N[C@@H](Cc1ccccc1)[C@H](O)C(=O)N1CSC(C)(C)[C@H]1C(=O)NC(C)C(C)(C)C)C(C)(C)C)c1ccccc1 (stereo partly specified)
IC50 [nM]: 103

COMPOUND: CC(C)(C)CNC(=O)[C@H]1N(C(=O)[C@@H](O)[C@H](Cc2ccccc2)NC(=O)[C@@H](NC(=O)[C@@H](NC(=O)C2CC2)c2ccccc2)C(C)(C)C)CSC1(C)C
IC50 [nM]: 86

Given `CC(C)C(=O)N[C@H](C(=O)N[C@H](C(=O)N[C@@H](Cc1ccccc1)[C@H](O)C(=O)N1CSC(C)(C)[C@H]1C(=O)NCC1CC1)C(C)(C)C)c1ccccc1` , state its recorded IC50.
134

Now try `CC(=O)N[C@H](C(=O)N[C@H](C(=O)N[C@@H](Cc1ccccc1)[C@H](O)C(=O)N1CSC(C)(C)[C@H]1C(=O)NCC(C)C)C(C)(C)C)c1ccccc1` .
107

Entry to check: `CC(=O)N[C@H](C(=O)N[C@H](C(=O)N[C@@H](Cc1ccccc1)[C@H](O)C(=O)N1CSC(C)(C)[C@H]1C(=O)NCC(C)(C)C)C(C)(C)C)c1ccccc1`
113

Similarly, `CC(C)(C)C(=O)N[C@H](C(=O)N[C@H](C(=O)N[C@@H](Cc1ccccc1)[C@H](O)C(=O)N1CSC(C)(C)[C@H]1C(=O)NCC1CC1)C(C)(C)C)c1ccccc1` ?
187

Now the same for CC(NC(=O)[C@H]1N(C(=O)[C@@H](O)[C@H](Cc2ccccc2)NC(=O)[C@@H](NC(=O)[C@@H](NC(=O)C2CC2)c2ccccc2)C(C)(C)C)CSC1(C)C)C(C)(C)C (stereo partly specified)
85

Repeat with `CC(C)(C)[C@H](NC(=O)[C@@H](NC(=O)C1CC1)c1ccccc1)C(=O)N[C@@H](Cc1ccccc1)[C@H](O)C(=O)N1CSC(C)(C)[C@H]1C(=O)NCC1CC1`
142

---

molecular target: Protease (Human T-cell leukemia virus type I, UniProt Q82134, L40I); experiment: Inhibition of HTLV1 protease L40I mutant
Starred links: 1 amine or outer side, 2 acyl side, 3 side chain; linkers in the order of their positions; H or OH if unused. Non-standard residues stand in square brackets, D forms with d. Residues, ends and D or L forms follow the SMILES beside them. X1 = O=C([C@@H](O)[C@H](Cc1ccccc1)N[*:1])[*:2]; Thz(5,5-Me2) = CC1(C)SCN[C@@H]1C(=O)O
PROPERTY_NAME: pIC50
The read-out pIC50 is expressed as -log10 of concentration in moles per litre.

COMPOUND: CC(C)C(=O)N[C@H](C(=O)N[C@H](C(=O)N[C@@H](Cc1ccccc1)[C@H](O)C(=O)N1CSC(C)(C)[C@H]1C(=O)NC(C)C(C)(C)C)C(C)(C)C)c1ccccc1 (stereo not given in full)
pIC50: 7.08

Which measured pIC50 value corresponds to `CCCC(=O)N[C@H](C(=O)N[C@H](C(=O)N[C@@H](Cc1ccccc1)[C@H](O)C(=O)N1CSC(C)(C)[C@H]1C(=O)NCC1CC1)C(C)(C)C)c1ccccc1` ?
6.95

Another compound: `CC(C)CC(=O)N[C@H](C(=O)N[C@H](C(=O)N[C@@H](Cc1ccccc1)[C@H](O)C(=O)N1CSC(C)(C)[C@H]1C(=O)NCC1CC1)C(C)(C)C)c1ccccc1`
6.88

Same question for `CC(C)C(=O)N[C@H](C(=O)N[C@H](C(=O)N[C@@H](Cc1ccccc1)[C@H](O)C(=O)N1CSC(C)(C)[C@H]1C(=O)NCC(C)(C)C)C(C)(C)C)c1ccccc1` please.
7.11

Follow-up entry: CC[C@H](C)[C@H](NC(C)=O)C(=O)N[C@H](C(=O)N[C@@H](Cc1ccccc1)[C@H](O)C(=O)N1CSC(C)(C)[C@H]1C(=O)N[C@H](C(=O)N[C@@H](CCSC)C(N)=O)[C@@H](C)CC)[C@@H](C)CC (Ac-II[X1][Thz(5,5-Me2)]IM-NH2)
7.06
